meta.source: the array DNA melting data of Ke et al. (doi:10.1101/2024.01.08.574731)

Assay: folding enthalpy; higher = less favourable; fluorescence melt of hairpins on a sequencing array, two-state fit
Details: sodium 0.088 M
measured quantity: folding enthalpy (kcal/mol)
Answers are plain numbers, in kcal/mol.

| seq text | unit annotation | folding enthalpy |
| --- | --- | --- |
| GCATTCCCGAAAGGGTGC (((..(((....)))))) | kcal/mol | -20.9 |

Quick request: folding enthalpy for each listed item, please.
1. GTTCGACGAAAGTCCAAC (((.(((....))).)))
2. GTTTAGCCGAAAGGCAAC (((..(((....))))))
3. GCATAAGGAAACTTGTGC (((.(((....))).)))

Solution:
1: -19.8; 2: -8.63; 3: -25.8

I would be grateful if you could provide folding enthalpy for each of the following entries.
1. GCAGTGCGAAAGCTCTGC ((((.((....)).))))
2. GATCTAGAGCTAGATC ((((((....))))))
3. GTCATGGCGAAAGCCGAC (((..(((....))))))
4. GGTCGGCGAAAGCCACC (((.(((....))))))

Solution:
1: -40.3; 2: -29.4; 3: -13.4; 4: -14.8

====

Experiment: melting temperature; fluorescence melt of hairpins on a sequencing array, two-state fit, raised by 9.35 °C to match UV melts
Details: sodium 0.088 M
measured quantity: Tm (°C)
Answers are plain numbers, in °C.

| seq text | Tm, °C |
| --- | --- |
| GACGGTGGAAACGCTGTC (((.(.(....).).))) | 40.9 |
| GCTGAAGGAAACTTCAGC (((((((....))))))) | 62.4 |

For each of the items listed, what is its Tm?
1. CTAGGGAAACCTAG (((((....)))))
2. AACGTGAAAACGTT (((((....)))))
3. GCCGGCGAAAGCCGAGGC ((((((....)))..)))
4. GCCTAGCCGAAAGGCGGC (((..(((....))))))
5. GTGAGCGGAAACACTCAC (((((.(....).)))))

Solution:
1: 39.4; 2: 48; 3: 63.1; 4: 59.7; 5: 47.7

====

Assay: folding enthalpy; higher = less favourable; fluorescence melt of hairpins on a sequencing array, two-state fit
Details: sodium 0.088 M
Tag: TRUE if measured folding enthalpy is not below -30 kcal/mol, FALSE if it is.

Solved cases (5 shown):
| seq text | assigned label |
| --- | --- |
| GTAGAGCCGAAAGGCTAC (((..(((....)))))) | TRUE |
| GCTAATCCGAAAGGAAGC (((..(((....)))))) | TRUE |
| GTACGCGAAAGCGTATAC ((((((....)))..))) | TRUE |
| GGTCAACGAAAGTTAACC (((.(((....))).))) | TRUE |
| GCGAGGGGAAACCCTTGC ((.((((....)))).)) | FALSE |

Kindly consider the entry below.
Exercise: Assess whether reported folding enthalpy for GTGAAGGGAAACCCTCAC ((((.((....)).)))) sits at -30 kcal/mol or higher.
Solution: TRUE

====

Experiment: folding enthalpy; higher = less favourable; fluorescence melt of hairpins on a sequencing array, two-state fit
Conditions: sodium 0.088 M
measured quantity: folding enthalpy (kcal/mol)
Give bare numbers, in kcal/mol.

| seq text | folding enthalpy / kcal/mol |
| --- | --- |
| GCTACGCGAAAGCATCGC ((.(.((....)).).)) | -9.49 |
| GGCCTTGCGAAAGCAGCC (((..(((....)))))) | -15.8 |
| GACAACCGAAAGGTGGTC (((.(((....))).))) | -35.3 |

I would be grateful if you could provide folding enthalpy for each of the following entries.
1. GTGTTCGCGAAAGCGCAC (((..(((....))))))
2. GATGATGGAAACATTATC (((.(((....))).)))
3. GATCCTTGTAAGGATC ((((((....))))))
4. GGCCAAGAAATTGGCC ((((((....))))))

Solution:
-18.1
-30.4
-42.3
-40.1
